These entries and their values trace back to PubChem BioAssay AID1224861.

- ASSAY COMMENT: Compound cytotoxicity measured by an ATP content assay as a counter-screen for lead compounds in human astrocytes
- TEST CONTEXT: human astrocytes viability, ATP luminescence; series mostly up to 46.1 µM
Records with an inconclusive call do not appear. Active and inactive are the calls of the source. Calls come from the whole dose curve; as a rule, active = well fitted cell-killing curve with a large enough effect; inconclusive = small, poorly fitted or top-dose-only effect, or effect the other way; inactive = flat fitted curve, though single readings scatter.
Pick one and only one: yes for active, no for inactive

Some entries whose results are on file:
| SMILES ENTRY | ASSIGNED CATEGORY |
| --- | --- |
| O=C(Nc1ccc([N+](=O)[O-])cc1Cl)c1cc(Cl)ccc1O | yes |
| NC(=O)c1cccc2[nH]c(-c3ccc([C@H]4CCCN4)cc3F)nc12 | yes |
| N#CC1(c2ccc(NC(=O)c3cccnc3NCc3ccncc3)cc2)CCCC1 | no |

**Q:** Tell me the assay call for CC1(C)Cc2c(sc(NC(=S)NC(=O)c3ccccc3)c2C(=O)O)CO1 please.
**A:** no

**Q:** Tell me the assay call for O=c1[nH]nc(Sc2ncc([N+](=O)[O-])s2)n1-c1ccc2c(c1)OCCO2 please.
**A:** yes

**Q:** Tell me the assay call for Oc1cc(O)cc(/C=C/c2ccc(O)c(O)c2)c1 please.
**A:** yes

**Q:** Tell me the assay call for O=C(CS)Nc1ccccc1 please.
**A:** no

====

- ASSAY COMMENT: Compound cytotoxicity measured by an ATP content assay as a counter-screen for lead compounds in human astrocytes
- TEST CONTEXT: human astrocytes viability, ATP luminescence; series mostly up to 46.1 µM
Inconclusive results are not listed. The source made the active and inactive calls. The call rests on the fitted dose curve; in most records, active means well fitted cell-killing curve with a large enough effect; inconclusive means small, poorly fitted or top-dose-only effect, or effect the other way; inactive means flat fitted curve, though single readings scatter.
Pick one and only one: 1 (active), -1 (inactive)

Some entries whose results are on file:
| COMPOUND | ASSIGNED CATEGORY |
| --- | --- |
| CC(C)(C)OC(=O)CN(Cc1ccc(Cl)cc1)Cc1ccc([N+](=O)[O-])s1 | -1 |
| O=C(C=CC=Cc1ccc2c(c1)OCO2)N1CCCCC1 | -1 |

**Q:** Tell me the assay call for CC(=NNC(=S)N1CCC1)c1ccccn1 please.
**A:** 1

**Q:** Tell me the assay call for O=C(O)CCC(=O)c1ccc(-c2ccccc2)cc1 please.
**A:** -1

**Q:** Tell me the assay call for CCCCCCCC/C=C/C(=O)O please.
**A:** -1

====

- ASSAY COMMENT: Compound cytotoxicity measured by an ATP content assay as a counter-screen for lead compounds in human astrocytes
- TEST CONTEXT: human astrocytes viability, ATP luminescence; series mostly up to 46.1 µM
Records with an inconclusive call do not appear. Active and inactive are the calls of the source. Calls come from the whole dose curve; as a rule, active = well fitted cell-killing curve with a large enough effect; inconclusive = small, poorly fitted or top-dose-only effect, or effect the other way; inactive = flat fitted curve, though single readings scatter.
Pick one and only one: 1 = active, -1 = inactive

| COMPOUND | ASSIGNED CATEGORY |
| --- | --- |
| CC(C(=O)O)c1ccc(-c2ccccc2)c(F)c1 (stereo not given) | -1 |
| CN(C)c1ccc(N=NS(=O)(=O)O)cc1 | -1 |

Turning now to a further compound:
**Q:** Tell me the assay call for CCCCCCCCCCCC(=O)[O][Sn]([CH2]CCC)([CH2]CCC)[O]C(=O)CCCCCCCCCCC please.
**A:** -1

====

- ASSAY COMMENT: Compound cytotoxicity measured by an ATP content assay as a counter-screen for lead compounds in human astrocytes
- TEST CONTEXT: human astrocytes viability, ATP luminescence; series mostly up to 46.1 µM
Inconclusive results are not listed. Activity calls are given as the source filed them. Calls come from the whole dose curve; as a rule, active = well fitted cell-killing curve with a large enough effect; inconclusive = small, poorly fitted or top-dose-only effect, or effect the other way; inactive = flat fitted curve, though single readings scatter.
Pick one and only one: Y (active), N (inactive)

Some entries whose results are on file:
| COMPOUND | ASSIGNED CATEGORY |
| --- | --- |
| CC(C(=O)O)c1ccc(C(=O)c2ccccc2)s1 (stereo not drawn) | N |
| Cc1nc(N)sc1-c1ccnc(Nc2ccc(N3CCOCC3)cc2)n1 | N |

**Q:** Tell me the assay call for O=C1NC(=O)C(=Cc2ccc(-c3ccc(F)cc3)o2)S1 please.
**A:** N

**Q:** Tell me the assay call for CCCC(=O)OC[C@@H](OC(=O)CCC)[C@@H](OC(=O)CCC)[C@H](Cn1c2nc(=O)[nH]c(=O)c-2nc2cc(C)c(C)cc21)OC(=O)CCC please.
**A:** N

**Q:** Tell me the assay call for O=C(Nc1ncc([N+](=O)[O-])s1)c1cccs1 please.
**A:** N

**Q:** Tell me the assay call for CCCS(=O)c1ccc2nc(NC(=O)OC)[nH]c2c1 (stereo not drawn) please.
**A:** N

**Q:** Tell me the assay call for c1ccc(CCNc2nc(-c3ccccc3)cs2)cc1 please.
**A:** N

**Q:** Tell me the assay call for O=C(Oc1ccccc1)c1cccc(C(=O)Oc2ccccc2)c1 please.
**A:** N

**Q:** Tell me the assay call for O=C(O)[C@@H](c1ccc(OCc2ccc3ccccc3n2)cc1)C1CCCC1 please.
**A:** N

**Q:** Tell me the assay call for CN1CC(=O)N/C1=N/C(=O)Nc1cccc(Cl)c1 please.
**A:** N

**Q:** Tell me the assay call for Nc1ccc(N=Nc2ccccc2)c(N)n1 please.
**A:** N

**Q:** Tell me the assay call for O=C(c1ccccc1)c1ccc2n1CCC2C(=O)O (stereo not drawn) please.
**A:** N

**Q:** Tell me the assay call for CC(=O)Oc1cccc2c1C(=O)c1c(OC(C)=O)cc(C(=O)O)cc1C2=O please.
**A:** N

**Q:** Tell me the assay call for CNC1[C@H](O)C(O[C@@H]2C(O)C(O[C@H]3O[C@H]([C@@H](C)NC)CC[C@H]3N)[C@@H](N)C[C@H]2N)OC[C@]1(C)O (stereo partly drawn) please.
**A:** N

**Q:** Tell me the assay call for CCOCCOC(=O)/C=C/c1ccc(OC)cc1 please.
**A:** N

**Q:** Tell me the assay call for CC(C(=O)O)c1ccc(C(=O)c2cccs2)cc1 (stereo not drawn) please.
**A:** N

**Q:** Tell me the assay call for O=C1c2ccccc2C(=O)c2c1ccc(O)c2O please.
**A:** N

**Q:** Tell me the assay call for CCOC1OC(=O)C[C@H]1NC(=O)[C@@H]1CCCN1C(=O)[C@@H](NC(=O)c1ccc(N)c(Cl)c1)C(C)(C)C (stereo partly drawn) please.
**A:** N

**Q:** Tell me the assay call for CCN1CCC(n2cc(CNc3cc(Cl)c4ncc(C#N)c(Nc5ccc(F)c(Cl)c5)c4c3)nn2)CC1 please.
**A:** N

**Q:** Tell me the assay call for O=C1C(Cl)=C(NCCN2CCOCC2)C(=O)c2ncccc21 please.
**A:** Y

**Q:** Tell me the assay call for CC=CC[C@@H](C)C(=O)[C@H]1C(=O)N[C@@H](C(C)C)C(=O)N(C)CC(=O)N(C)[C@@H](CC(C)C)C(=O)N[C@@H](C(C)C)C(=O)N(C)[C@@H](CC(C)C)C(=O)N[C@@H](C)C(=O)N[C@H](C)C(=O)N(C)[C@@H](CC(C)C)C(=O)N(C)[C@@H](CC(C)C)C(=O)N(C)[C@@H](C(C)C)C(=O)N1C please.
**A:** N

====

- ASSAY COMMENT: Compound cytotoxicity measured by an ATP content assay as a counter-screen for lead compounds in human astrocytes
- TEST CONTEXT: human astrocytes viability, ATP luminescence; series mostly up to 46.1 µM
Results filed as inconclusive are left out. Active and inactive are the calls of the source. Calls come from the whole dose curve; as a rule, active = well fitted cell-killing curve with a large enough effect; inconclusive = small, poorly fitted or top-dose-only effect, or effect the other way; inactive = flat fitted curve, though single readings scatter.
Pick one and only one: 1 (yes) (active), 0 (no) (inactive)

Some entries whose results are on file:
| MOLECULE | ASSIGNED CATEGORY |
| --- | --- |
| COc1ccc(-c2cc(=O)c3c(O)cc(O)cc3o2)cc1O | 0 (no) |
| Nc1ncnc2c1ncn2[C@@H]1O[C@@H](CO)[C@H](O)[C@H]1O | 0 (no) |
| O[C@@H](COc1cccc2ncccc12)CN1CCN(C2c3ccccc3[C@@H]3[C@H](c4ccccc42)C3(F)F)CC1 (some centres not stated) | 0 (no) |
| Nc1nc2ccc([N+](=O)[O-])cc2s1 | 0 (no) |
| COc1ccc(CC2=NN3C([C@@H](CCc4ccccc4)[C@@H](C)O)=NC(C)C3C(=O)N2)cc1OC (some centres not stated) | 0 (no) |

**Q:** Tell me the assay call for COCCn1c2c([n+](Cc3cnccn3)c1C)C(=O)c1ccccc1C2=O please.
**A:** 1 (yes)

**Q:** Tell me the assay call for CC1(C)OC2=C(C(=O)c3ccccc3C2=O)[C@H](NCc2ccccc2)[C@H]1O please.
**A:** 1 (yes)

====

- ASSAY COMMENT: Compound cytotoxicity measured by an ATP content assay as a counter-screen for lead compounds in human astrocytes
- TEST CONTEXT: human astrocytes viability, ATP luminescence; series mostly up to 46.1 µM
Results filed as inconclusive are left out. Calls of active or inactive are those of the source. The call rests on the fitted dose curve; in most records, active means well fitted cell-killing curve with a large enough effect; inconclusive means small, poorly fitted or top-dose-only effect, or effect the other way; inactive means flat fitted curve, though single readings scatter.
Pick one and only one: Y (active), N (inactive)

Some entries whose results are on file:
| COMPOUND | ASSIGNED CATEGORY |
| --- | --- |
| O=C(O)c1cccc(-c2noc(-c3ccccc3F)n2)c1 | Y |
| CC(C)c1ccc2oc3nc(N)c(C(=O)O)cc3c(=O)c2c1 | Y |
| CO[C@H]1C(=O)[C@]2(C)[C@@H](OC)C[C@H]3OC[C@@]3(OC(C)=O)[C@H]2[C@H](OC(=O)c2ccccc2)[C@]2(O)C[C@H](OC(=O)[C@H](O)[C@@H](NC(=O)OC(C)(C)C)c3ccccc3)C(C)=C1C2(C)C | N |
| COc1cccc2c1C(=O)c1c(O)c3c(c(O)c1C2=O)C[C@@](O)(C(=O)CO)C[C@@H]3O[C@H]1C[C@H](N)[C@H](O[C@@H]2CCCCO2)[C@H](C)O1 | N |
| CCC(C(=O)O)c1ccc(N2Cc3ccccc3C2=O)cc1 (configuration not stated) | N |
| CC[C@@]1(O)C[C@H](O[C@H]2C[C@H](N(C)C)[C@H](O[C@H]3C[C@H](O)[C@H](O[C@H]4CCC(=O)[C@H](C)O4)[C@H](C)O3)[C@H](C)O2)c2c(cc3c(c2O)C(=O)c2c(O)cccc2C3=O)[C@@H]1C(=O)OC | N |
| c1ccc2[nH]c(-c3cscn3)nc2c1 | N |
| C[C@H](NC(=O)C(=O)Nc1ccccc1C(C)(C)C)C(=O)N[C@@H](CC(=O)O)C(=O)COc1c(F)c(F)cc(F)c1F | N |
| Cc1csc(NC(=O)c2sc3nc4c(c(C(F)(F)F)c3c2N)CCC4)n1 | Y |
| Cc1oncc1C(=O)Nc1ccc(C(F)(F)F)cc1 | N |

**Q:** Tell me the assay call for O=C(Nc1cc2cc[nH]c2cn1)c1ccccc1 please.
**A:** Y

**Q:** Tell me the assay call for Cc1c(N)c(=O)n(-c2ccccc2)n1C please.
**A:** N
